Reference source for all entries: PubChem BioAssay (NCI)

- measurement notes: NCI Yeast Anticancer Drug Screen. Data for the mlh1 rad18 strain (AID 175)
- condition description: S. cerevisiae mlh1 rad18 strain growth inhibition; at 50.0 µM (retest, dose inferred, filed as 5.0)
Compounds without any hit were thinned out: in the full panel of roughly 79,000, 15% have a hit. Active and inactive are the calls of the source. Rule as the data show it: active = growth inhibition above about 70%; inactive = the rest.
Classes used: y = active, n = inactive

molecule | label
S=c1sc2nc(Cl)nc(Cl)c2s1 | y
N#Cc1ccc(C2Oc3ccc(Cl)cc3C=C2[N+](=O)[O-])cc1 (stereo unspecified) | y
Nc1ccc(-c2cccc(-c3ccccc3)c2)cc1 | y
COC(=O)Cn1/c(=N\N=C(/C)c2ccc(C)cc2)sc2ccccc21 | n
O=C(CC(=O)Nc1cccc(Cl)c1)NNCC(=O)Nc1nnc(-c2ccccc2)s1 | y
CC(C)(CC(=O)NNc1ccccc1)C(=O)O | y
O=C(NCCCCC(NC(=O)OCc1ccccc1)C(=O)Nc1ccc(Nc2ccc(NC(=O)C(CCCCNC(=O)OCc3ccccc3)NC(=O)OCc3ccccc3)cc2)cc1)OCc1ccccc1 (stereo unspecified) | n
COC1CCC2(C)C(=CCC3C4CC(OC(C)=O)CC4(C)CCC32)C1 (stereo unspecified) | n
CCCCCCCCCc1cccc(N2C(N)=NC(N)=NC2(C)C)c1 | n
COc1ccc(N=NN(C)C)cc1 | y
CCOC(=O)c1cc(Cc2ccccc2)c(=O)n(C)c1-c1ccccc1 | y
